Data provenance: patent US7071195B2

Tested System: human neuropeptide Y5 receptor (Homo sapiens)
Construct: expressed in transfected cells; host or cells: HEK-293 (stably transfected, G-418 selected); membranes
Sequence (Q15761 whole entry): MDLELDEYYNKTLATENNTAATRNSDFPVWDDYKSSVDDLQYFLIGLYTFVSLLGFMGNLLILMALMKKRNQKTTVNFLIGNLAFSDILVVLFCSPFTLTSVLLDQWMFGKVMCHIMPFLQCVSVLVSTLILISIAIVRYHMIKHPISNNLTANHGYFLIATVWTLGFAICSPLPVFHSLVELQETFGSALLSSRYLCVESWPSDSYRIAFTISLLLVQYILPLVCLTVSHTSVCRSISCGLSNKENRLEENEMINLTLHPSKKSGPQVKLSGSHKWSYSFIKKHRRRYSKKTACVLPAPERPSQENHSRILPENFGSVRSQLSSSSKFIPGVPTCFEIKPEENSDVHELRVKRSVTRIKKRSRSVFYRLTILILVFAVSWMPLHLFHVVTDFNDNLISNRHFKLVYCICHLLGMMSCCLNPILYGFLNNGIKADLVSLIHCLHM
Measurement Notes: NPY5 HTS centrifugation assay: competition with 125I-PYY for binding to membranes of NPY5-transfected HEK293 cells
Condition Details: 300 nM compound, 80 pM 125I-PYY, 1 hr room temperature, read-out: % Inh @ 300 nM (% Inhibition of 125I-PYY Binding)
Counter-ions that a name gives are not always drawn.
We begin with a simple list: items and their reported inhibition at 0.3 µM.

Compound	Value Units	inhibition at 0.3 µM
COc1ccc2c(c1)CC[C@@H](NC(=O)CN1CCC(n3c(=O)[nH]c4ccccc43)CC1)[C@@H]2Cc1cccnc1 (relative stereo) [Compound 20, bis-hydrochloride]	%	88
O=S(=O)(NC[C@H]1CC[C@H](CNCC(Cc2cccnc2)c2ccc(F)cc2)CC1)c1ccccc1F (stereo partly shown) [Compound 27, bis-hydrochloride]	%	105
COc1ccc2c(c1)CCC(NC(=O)[C@H](CCCCNS(=O)(=O)c1ccccc1F)NC(C)=O)C2Cc1cccnc1 (stereo partly shown) [Compound 10, bis-hydrochloride]	%	60
O=C(NCC(Cc1cccnc1)c1ccc(F)cc1)[C@H]1CC[C@H](CNS(=O)(=O)c2ccccc2F)CC1 (relative stereo) [Compound 26, hydrochloride]	%	108
CC(=O)C1(c2ccccc2)CCN(CC(=O)N[C@H]2CCc3ccccc3[C@H]2Cc2cccnc2)CC1 (relative stereo) [Compound 21, bis-hydrochloride]	%	83
O=C(CN1CCC2(CC1)C(=O)NCN2c1ccccc1)N[C@H]1CCc2ccccc2[C@H]1Cc1cccnc1 (relative stereo) [Compound 22, bis-hydrochloride]	%	32
O=C(CN1CCC(n2c(=O)[nH]c3ccccc32)CC1)N[C@H]1CCc2cc(O)ccc2[C@H]1Cc1cccnc1 (relative stereo) [Compound 23, bis-hydrochloride]	%	96
COc1ccc2c(c1)CC[C@H](NC(=O)CN1CCC(n3c(=O)[nH]c4ccccc43)CC1)[C@@H]2Cc1cccnc1 (relative stereo) [Compound 19, Bis-hydrochloride]	%	69
O=C(CN1CCC(NS(=O)(=O)c2ccccc2F)CC1)NCC(Cc1cccnc1)c1ccc(F)cc1 (stereo not shown) [Compound 30, bis-trifluoroacetate]	%	100
O=C(CN1CCC(NS(=O)(=O)c2ccccc2)C1)N[C@H]1CCc2cc(F)ccc2[C@H]1Cc1cccnc1 (relative stereo) [Compound 17, bis-trifluoroacetate]	%	98
